- Subject Of Test: GluN2B glutamate receptors (Homo sapiens, UniProt Q05586+Q13224)
- Construct: expressed in transfected cells; host or cells: mammalian cells (line not described for GluN2B)
- Sequence (Q13224 27-1484, other chains not shown): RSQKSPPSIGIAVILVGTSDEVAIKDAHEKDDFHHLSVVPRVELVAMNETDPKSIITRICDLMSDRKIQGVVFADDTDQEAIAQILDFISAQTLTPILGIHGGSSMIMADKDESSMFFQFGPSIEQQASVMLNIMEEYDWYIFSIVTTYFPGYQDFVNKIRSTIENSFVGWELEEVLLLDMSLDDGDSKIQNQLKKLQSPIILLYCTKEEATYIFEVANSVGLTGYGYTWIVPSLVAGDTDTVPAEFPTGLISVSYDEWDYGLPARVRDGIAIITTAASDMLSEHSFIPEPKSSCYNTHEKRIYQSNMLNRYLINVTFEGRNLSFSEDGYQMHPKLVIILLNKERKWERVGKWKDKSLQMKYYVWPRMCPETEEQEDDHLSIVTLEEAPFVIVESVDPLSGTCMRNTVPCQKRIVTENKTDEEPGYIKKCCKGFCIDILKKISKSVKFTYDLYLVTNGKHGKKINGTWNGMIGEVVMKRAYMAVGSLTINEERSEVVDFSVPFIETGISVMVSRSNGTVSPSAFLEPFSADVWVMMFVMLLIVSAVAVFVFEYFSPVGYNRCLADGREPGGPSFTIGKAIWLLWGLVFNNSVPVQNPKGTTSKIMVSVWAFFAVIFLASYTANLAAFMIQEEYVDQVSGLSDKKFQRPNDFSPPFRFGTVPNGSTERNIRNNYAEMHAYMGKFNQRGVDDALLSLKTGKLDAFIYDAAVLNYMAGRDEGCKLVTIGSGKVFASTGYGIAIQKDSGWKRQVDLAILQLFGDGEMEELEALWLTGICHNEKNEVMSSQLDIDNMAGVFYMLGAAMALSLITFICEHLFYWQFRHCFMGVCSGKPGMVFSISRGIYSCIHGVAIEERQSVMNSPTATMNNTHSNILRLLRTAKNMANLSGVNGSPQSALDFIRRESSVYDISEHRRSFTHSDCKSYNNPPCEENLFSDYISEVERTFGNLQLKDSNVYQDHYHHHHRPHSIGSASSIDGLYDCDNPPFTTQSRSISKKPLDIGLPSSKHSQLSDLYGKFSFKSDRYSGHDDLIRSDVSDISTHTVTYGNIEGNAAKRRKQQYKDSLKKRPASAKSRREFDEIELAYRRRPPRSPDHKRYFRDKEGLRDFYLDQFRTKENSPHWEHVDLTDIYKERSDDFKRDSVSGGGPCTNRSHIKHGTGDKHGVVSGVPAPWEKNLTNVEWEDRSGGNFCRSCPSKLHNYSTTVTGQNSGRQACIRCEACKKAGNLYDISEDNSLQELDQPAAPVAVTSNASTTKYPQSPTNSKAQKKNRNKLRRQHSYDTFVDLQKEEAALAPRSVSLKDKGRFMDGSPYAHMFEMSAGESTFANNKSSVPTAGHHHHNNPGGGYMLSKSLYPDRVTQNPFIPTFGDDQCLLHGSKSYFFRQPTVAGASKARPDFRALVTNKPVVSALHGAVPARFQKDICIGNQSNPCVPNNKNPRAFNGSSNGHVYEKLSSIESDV
- Test Name: Whole-cell patch clamp of mammalian cells (Ionworks Barracuda), positive allosteric modulation (PAM) of NMDA receptor, 2B
- Format: cell-based
- Condition Set: % activation of current elicited with EC20 L-glutamate and 30 µM glycine
Use 200% as the dividing line for Avg Emax 2B (%), with the line itself on the Condition met side and lower values as Condition not met.

Worked set:
[
  {
    "Compound": "C[C@H](CCC[C@@H](O)C(C)(C)C)[C@H]1CC[C@H]2[C@@H]3CC[C@H]4C[C@](O)(C(F)(F)F)CC[C@]4(C)[C@H]3CC[C@]12C",
    "Category Label": "Condition not met"
  },
  {
    "Compound": "CC[C@H](O)CCC[C@@H](C)[C@H]1CC[C@H]2[C@@H]3CC=C4C[C@](O)(CC)CC[C@@H]4[C@H]3CC[C@]12C",
    "Category Label": "Condition not met"
  },
  {
    "Compound": "CC(C)[C@H](O)CC[C@@H](C)[C@H]1CC[C@H]2[C@@H]3CC[C@H]4C[C@@](C)(O)CC[C@@H]4[C@H]3CC[C@]12C",
    "Category Label": "Condition met"
  },
  {
    "Compound": "CC[C@]1(O)CC[C@H]2C(=CC[C@@H]3[C@@H]2CC[C@]2(C)[C@@H]([C@H](C)CCC[C@@H](O)C(C)C)CC[C@@H]32)C1",
    "Category Label": "Condition not met"
  }
]

Is reported Avg Emax 2B (%) greater than or equal to 200% here: C[C@H](CCC1(O)CCC(OC(F)F)CC1)[C@H]1CC[C@H]2[C@@H]3CC[C@H]4C[C@](O)(C(F)(F)F)CC[C@]4(C)[C@H]3CC[C@]12C (stereo partly drawn)
Condition not met

Is reported Avg Emax 2B (%) greater than or equal to 200% here: "C[C@H](CC[C@](C)(O)C(F)(F)F)[C@H]1CC[C@H]2[C@@H]3CC=C4C[C@@](C)(O)CC[C@@H]4[C@H]3CC[C@]12C"
Condition not met

---

- Subject Of Test: GlunN1/GluN2A glutamate receptors (Homo sapiens, UniProt Q05586+Q12879)
- Construct: expressed in transfected cells
- Sequence (Q12879 23-1464, other chains not shown): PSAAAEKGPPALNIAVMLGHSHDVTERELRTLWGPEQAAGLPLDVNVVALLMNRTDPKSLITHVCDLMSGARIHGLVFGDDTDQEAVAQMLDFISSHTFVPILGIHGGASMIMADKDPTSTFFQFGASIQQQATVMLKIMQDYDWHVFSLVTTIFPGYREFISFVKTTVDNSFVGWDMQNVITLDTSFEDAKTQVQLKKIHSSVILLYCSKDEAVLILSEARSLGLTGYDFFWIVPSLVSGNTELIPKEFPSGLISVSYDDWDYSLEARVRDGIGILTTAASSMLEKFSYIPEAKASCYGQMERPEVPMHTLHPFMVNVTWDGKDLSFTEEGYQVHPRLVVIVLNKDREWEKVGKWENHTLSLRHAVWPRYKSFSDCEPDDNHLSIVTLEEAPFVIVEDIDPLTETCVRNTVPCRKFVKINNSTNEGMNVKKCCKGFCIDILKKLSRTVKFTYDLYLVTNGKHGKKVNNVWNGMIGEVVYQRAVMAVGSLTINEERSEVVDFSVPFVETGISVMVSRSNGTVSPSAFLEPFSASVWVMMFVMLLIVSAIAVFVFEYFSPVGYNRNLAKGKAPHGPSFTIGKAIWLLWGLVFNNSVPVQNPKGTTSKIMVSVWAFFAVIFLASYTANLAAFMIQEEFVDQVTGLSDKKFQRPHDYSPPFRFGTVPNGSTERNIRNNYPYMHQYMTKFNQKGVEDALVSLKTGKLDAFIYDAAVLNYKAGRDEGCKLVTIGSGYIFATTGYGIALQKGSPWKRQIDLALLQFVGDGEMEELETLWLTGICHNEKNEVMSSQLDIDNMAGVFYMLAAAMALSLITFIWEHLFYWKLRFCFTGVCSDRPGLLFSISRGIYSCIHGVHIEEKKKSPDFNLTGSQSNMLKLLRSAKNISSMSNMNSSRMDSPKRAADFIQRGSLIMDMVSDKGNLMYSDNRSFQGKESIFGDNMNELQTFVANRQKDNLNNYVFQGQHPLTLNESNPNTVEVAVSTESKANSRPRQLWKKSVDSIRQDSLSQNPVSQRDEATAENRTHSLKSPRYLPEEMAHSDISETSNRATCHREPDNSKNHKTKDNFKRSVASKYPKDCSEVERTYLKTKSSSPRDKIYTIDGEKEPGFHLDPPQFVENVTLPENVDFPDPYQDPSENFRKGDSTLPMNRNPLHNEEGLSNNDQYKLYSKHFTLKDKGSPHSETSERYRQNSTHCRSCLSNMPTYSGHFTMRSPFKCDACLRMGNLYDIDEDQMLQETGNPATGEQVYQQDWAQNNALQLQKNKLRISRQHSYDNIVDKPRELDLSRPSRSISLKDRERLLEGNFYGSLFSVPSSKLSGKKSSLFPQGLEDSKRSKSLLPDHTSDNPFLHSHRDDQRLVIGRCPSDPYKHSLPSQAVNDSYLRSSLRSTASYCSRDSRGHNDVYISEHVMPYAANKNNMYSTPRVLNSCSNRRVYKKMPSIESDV
- Test Name: Whole-cell patch clamp of mammalian cells (Ionworks Barracuda), positive allosteric modulation (PAM) of NMDA receptor, 2A
- Type: cell-based
- Condition Set: HEK293, HEK293 cells; % activation of current elicited with EC20 L-glutamate and 30 µM glycine
Use 300% as the dividing line for Emax, with the line itself on the Y side and lower values as N.

[
  {
    "Molecule": "CC(C)[C@H](O)CC[C@@H](C)[C@H]1CC[C@H]2[C@@H]3CC=C4C[C@](O)(C(F)(F)F)CC[C@]4(C)[C@H]3CC[C@]12C [Compound 1-B]",
    "Category Label": "N"
  },
  {
    "Molecule": "C[C@H](CC[C@](C)(O)C(F)(F)F)[C@H]1CC[C@H]2[C@@H]3CC=C4C[C@](O)(C(F)(F)F)CC[C@]4(C)[C@H]3CC[C@]12C [Compound 3035]",
    "Category Label": "Y"
  },
  {
    "Molecule": "C[C@H](CC[C@@H](O)C(C)(C)C)[C@H]1CC[C@H]2[C@@H]3CC[C@@H]4C[C@](O)(C(F)(F)F)CC[C@]4(C)[C@H]3CC[C@]12C [Compound 3788]",
    "Category Label": "N"
  }
]

Is reported Emax greater than or equal to 300% here: CCC1(O)CCC2(C)C(=CCC3C2CCC2(C)C(C(C)CCC(O)c4ccccc4F)CCC32)C1 (single isomer, unassigned) [Compound 7281]
N

Is reported Emax greater than or equal to 300% here: C[C@H](CCC1(O)CCC(F)(F)CC1)[C@H]1CC[C@H]2[C@@H]3CC[C@H]4C[C@](O)(C(F)(F)F)CC[C@]4(C)[C@H]3CC[C@]12C [Compound 8]
Y

Is reported Emax greater than or equal to 300% here: CCC1(O)CCC2C(=CCC3C2CCC2(C)C(C(C)CCC4(O)CCOC4)CCC32)C1 (single isomer, unassigned) [Compound 8602]
N
